- EXPERIMENT NOTES: Cell growth inhibition assay (MTT uptake)
- Assay type: cell-based
- MEASUREMENT CONDITIONS: monkey, Vero cells, 50% inhibition of cell viability at 96 hours, read-out: Toxicity CCID50(Vero)
Reported CC50 at 96 h is given for each of the following molecules.
TEST READOUT: CC50 at 96 h

{"columns": ["RECORD SMILES", "VALUE"],
 "data": [
  ["C#Cc1cn([C@@H]2O[C@H](CO)[C@@H](O)[C@H]2F)c(=O)[nH]c1=O", "156 µM"],
  ["CC#Cc1cn([C@@H]2O[C@H](CO)[C@@H](O)[C@H]2F)c(=O)[nH]c1=O", "> 500 µM"],
  ["C#Cc1cn([C@@H]2O[C@H](CO)[C@@H](O)[C@H]2F)c(=O)nc1N", "> 500 µM"],
  ["CC#Cc1cn([C@@H]2O[C@H](CO)[C@@H](O)[C@H]2F)c(=O)nc1N", "> 500 µM"]
]}
